# reported switch fluorescence ratio; entries follow
test system: ATP; assay: switch fluorescence ratio, 500 uM ATP over buffer (Cy3 cluster intensity, sum of 5 cycles each) (fold (ratio)); higher = stronger signal-on switching upon ATP binding; sequences stand for … in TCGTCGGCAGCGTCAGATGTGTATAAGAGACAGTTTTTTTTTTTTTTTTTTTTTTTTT…TC; conditions: aptamer strand: ATP DNA aptamer (quencher-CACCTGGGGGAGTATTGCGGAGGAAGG + anchor), 100 nM annealed; ATP concentration: 500 uM;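 also: ATP exposure 15 min at 22 °C before imaging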
Give the value as a plain number.

Ask: Give the measured switch fluorescence ratio of GGACATTGAC .
Result: 1.08

###

system: ATP; assay: switch fluorescence ratio, 500 uM ATP over buffer (Cy3 cluster intensity, sum of 5 cycles each) (fold (ratio)); higher = stronger signal-on switching upon ATP binding; sequences stand for … in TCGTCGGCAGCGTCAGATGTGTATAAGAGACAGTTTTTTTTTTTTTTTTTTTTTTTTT…TC; conditions: aptamer strand: ATP DNA aptamer (quencher-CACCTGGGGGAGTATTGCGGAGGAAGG + anchor), 100 nM annealed; ATP concentration: 500 uM;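 also: ATP exposure 15 min at 22 °C before imaging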
# reported switch fluorescence ratio; entries follow
Give the value as a plain number.

Examples with answers:
[
  {
    "seq": "TGGGTATAGA",
    "switch fluorescence ratio": 1.01
  },
  {
    "seq": "GGGTATGAGG",
    "switch fluorescence ratio": 0.976
  },
  {
    "seq": "AATATAGGT",
    "switch fluorescence ratio": 1.02
  },
  {
    "seq": "GGATAATGCT",
    "switch fluorescence ratio": 0.96
  },
  {
    "seq": "TATTTTGTAG",
    "switch fluorescence ratio": 0.995
  },
  {
    "seq": "TGAAGGGACG",
    "switch fluorescence ratio": 1.02
  }
]

Ask: Give the measured switch fluorescence ratio of TTTAAGAGCG .
Result: 1.02

Ask: Give the measured switch fluorescence ratio of AGTGGCTATC .
Result: 1.01
